Molecular target: Transcription factor Sp1 (Homo sapiens)
Assay: ATG_Sp1_CIS: Attagene CIS-FACTORIAL HepG2 Assay for human Specificity Protein 1 (Sp1) (AID 2282961)
Details: HepG2 Sp1 cis-reporter transcription, actives raise or lower the signal
Active and inactive are the calls of the source. How the source made its calls: active means hit-call score of the fitted dose curve at least 0.9, where 1 is the maximum; inactive means score below 0.9.
Parameter call: string, one of true (1) (active), false (0) (inactive)

Molecule	Answer Label
C#CCO	false (0)

What outcome does the record of this test show for "CCCCOC(=O)COC(=O)c1ccccc1C(=O)OCCCC" ?
false (0)

What outcome does the record of this test show for "C[C@@H]1O[C@@H](O[C@H]2C[C@@H](O)[C@]3(CO)[C@H]4[C@H](O)C[C@]5(C)[C@@H](C6=CC(=O)OC6)CC[C@]5(O)[C@@H]4CC[C@]3(O)C2)[C@H](O)[C@H](O)[C@H]1O" ?
true (1)

What outcome does the record of this test show for "O=C1C[C@@H]2OCC=C3CN4CC[C@]56c7ccccc7N1[C@H]5[C@H]2[C@H]3C[C@H]46" ?
false (0)

What outcome does the record of this test show for "OCCCCO" ?
false (0)

What outcome does the record of this test show for "CCCCCCCCCCCCN(C)C" ?
true (1)

What outcome does the record of this test show for CC(C)=CC1C(C(=O)OCc2cccc(Oc3ccccc3)c2)C1(C)C (stereo not drawn) ?
false (0)

----------
Test system: TTR (gene 7276)
Experiment: CCTE_GLTED_hTTR_0.125uM: CCTE's human Transthyretin (hTTR) Inhibition Assay, with 0.125uM TTR, Great Lakes Toxicology and Ecology Division (GLTED) Lab (AID 2284431);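 further: hits lower the fluorescence signal relative to DMSO baseline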
Calls of active or inactive are those of the source. The calls were made as follows: active = hit-call score of the fitted dose curve at least 0.9, where 1 is the maximum; inactive = score below 0.9.
Quick list: AC50 per entry.

Worked examples follow.
> print(dat)
                                   compound  endpoint            result
1  COc1nn(C(=O)NS(=O)(=O)c2ccccc2OC(F)(F)F)c(=O)n1C      AC50  9990 nM (active)
2                       Oc1c(Br)cc(Br)cc1Br      AC50  28.7 nM (active)
3          CCOP(=S)(OCC)O/N=C(\C#N)c1ccccc1      AC50  2070 nM (active)

Noted for "O=C(O)COc1cc(Cl)c(Cl)cc1Cl" : its AC50 reads 692 nM (active)

Noted for O=C1c2ccccc2C(=O)C1C(=O)C(c1ccccc1)c1ccc(Cl)cc1 (stereo not given) : its AC50 reads 3480 nM (active)

----------
Read-out: Monocyte Chemoattractant Protein-1 (MCP1), CCL2 (gene 6347)
Experiment: BSK_4H_MCP1: BioMAP Diversity Plus: 4H Assay for Monocyte Chemoattractant Protein-1 (MCP1) Biomarker Activity (AID 2283018)
Details: primary human endothelial cells (HUVEC); actives raise or lower the signal
Active and inactive are the calls of the source. How the source made its calls: active means hit-call score of the fitted dose curve at least 0.9, where 1 is the maximum; inactive means score below 0.9.
Parameter call: string, one of T (active), F (inactive)

Examples with answers:
> print(dat)
                     query.smiles  answer.label
1                    Nc1ccc(N)cc1             F
2  c1ccc(-c2cccc(-c3ccccc3)c2)cc1             T

What outcome does the record of this test show for "CC(C)(C)c1cc([N+](=O)[O-])cc(C(C)(C)C)c1O" ?
F

----------
Molecular target: Nucleoli Translocation, AR (gene 367)
Test: UPITT_HCI_U2OS_AR_TIF2_Nucleoli_Antagonist: University of Pittsburgh U2OS Androgen Receptor-Transcriptional Intermediary Factor 2 (AR-TIF2) Antagonism High Content Imaging Assay for Nucleoli Translocation (AID 2283997)
Records with an inconclusive call do not appear. Activity calls are given as the source filed them. How the source made its calls: active means hit-call score of the fitted dose curve at least 0.9, where 1 is the maximum; inconclusive means response in the unintended direction; inactive means score below 0.9.
Endpoint: AC50

> print(dat)
                                   compound  endpoint             result
1  O=C(NC(=O)c1c(F)cccc1F)Nc1cc(Cl)c(OC(F)(F)C(F)C(F)(F)F)cc1Cl (stereo unspecified)      AC50           inactive
2                CC(=Cc1ccccc1)[N+](=O)[O-]      AC50  0.585 µM (active)
3                                   N#CCC#N      AC50           inactive
4            CNC(=O)O/N=C/C(C)(C)S(C)(=O)=O      AC50           inactive
5               CCOP(=S)(OCC)OP(=S)(OCC)OCC      AC50   72.1 µM (active)

Pending compound:
Noted for "O=C(CCl)Nc1ccccc1" : its AC50 reads 29 µM (active)

----------
Assay: ATG_TCF_b_cat_CIS: Attagene CIS-FACTORIAL HepG2 Assay for human T-Cell-Factor with beta-catenin (TCF/b-cat) (AID 2282965)
Details: HepG2 TCF/beta-catenin cis-reporter transcription, actives raise or lower the signal
Activity calls are given as the source filed them. How the source made its calls: active means hit-call score of the fitted dose curve at least 0.9, where 1 is the maximum; inactive means score below 0.9.
Endpoint: outcome

> print(dat)
                                   compound  endpoint    result
1  CC(O)(CS(=O)(=O)c1ccc(F)cc1)C(=O)Nc1ccc(C#N)c(C(F)(F)F)c1 (stereo not drawn)   outcome  inactive
2       CCOP(=O)(OCC)OC(=CCl)c1ccc(Cl)cc1Cl   outcome  inactive
3              C=C(C)C(=O)OCCCCOC(=O)C(=C)C   outcome  inactive

----------
Assay: CEETOX_H295R_PROG: CeeTox H295R High-throughput Steroidogenesis Assay for Progesterone (PROG) (AID 2283442)
Conditions: actives raise or lower the signal
Calls of active or inactive are those of the source. How the source made its calls: active means hit-call score of the fitted dose curve at least 0.9, where 1 is the maximum; inactive means score below 0.9.
Parameter call: string, one of yes = active, no = inactive

> print(dat)
                                   molecule  answer.label
1  OC(Cc1ccccc1Cl)(Cn1[nH]cnc1=S)C1(Cl)CC1 (stereo not drawn)            no
2  CC(C)(COCC1CO1)COCC1CO1 (stereo not drawn)            no
3     Cc1ccccc1OP(=O)(Oc1ccccc1C)Oc1ccccc1C            no
4                       Oc1c(Br)cc(Br)cc1Br           yes
5                      Oc1cccc(-c2ccccc2)c1           yes
6          CCOP(=S)(OCC)O/N=C(\C#N)c1ccccc1           yes
7  CC(C)(C)c1cc([N+](=O)[O-])cc(C(C)(C)C)c1O            no

What outcome does the record of this test show for "Cc1cc(Cl)ccc1O" ?
no

----------
Test: ATG_E_Box_CIS: Attagene CIS-FACTORIAL HepG2 Assay for human Enhancer Box (E-box) (AID 2282936)
Settings: HepG2 E-box cis-reporter transcription, actives raise or lower the signal
Activity calls are given as the source filed them. Rule for the calls: active = hit-call score of the fitted dose curve at least 0.9, where 1 is the maximum; inactive = score below 0.9.
Parameter call: string, one of active, inactive

Examples with answers:
> print(dat)
                              molecule  answer.label
1                       CCN(N=O)C(N)=O      inactive
2                         C1CN2CCN1CC2      inactive
3  Cc1ccccc1OP(=O)(Oc1ccccc1)Oc1ccccc1      inactive
4          c1csc(-c2ccc(-c3cccs3)s2)c1      inactive
5     O=[N+]([O-])c1c2ccccc2cc2ccccc12      inactive

What outcome does the record of this test show for "CC1(C)[C@H](/C=C2\CCSC2=O)[C@@H]1C(=O)OCc1coc(Cc2ccccc2)c1" ?
inactive

What outcome does the record of this test show for "CNC(=O)N(C)c1nc2ccccc2s1" ?
inactive

What outcome does the record of this test show for "CCOC(=O)CCN(SN(C)C(=O)Oc1cccc2c1OC(C)(C)C2)C(C)C" ?
inactive

What outcome does the record of this test show for "CCOP(=S)(OCC)OP(=S)(OCC)OCC" ?
inactive

What outcome does the record of this test show for "O=C(O)COc1ccc(Cl)cc1" ?
inactive

What outcome does the record of this test show for "[F][Sn]([c]1ccccc1)([c]1ccccc1)[c]1ccccc1" ?
active

What outcome does the record of this test show for "CN(C)c1ccc(N=O)cc1" ?
active

What outcome does the record of this test show for "CCOP(=S)(OCC)O/N=C(\C#N)c1ccccc1" ?
inactive

What outcome does the record of this test show for CC(C)=CC1C(C(=O)OCc2cccc(Oc3ccccc3)c2)C1(C)C (centres undefined) ?
inactive

----------
Read-out: E-selectin (Homo sapiens)
Assay: BSK_3C_Eselectin: BioMAP Diversity Plus: 3C Assay for Eselectin Biomarker Activity (AID 2283015)
Settings: primary human endothelial cells (HUVEC); actives raise or lower the signal
Calls of active or inactive are those of the source. The calls were made as follows: active = hit-call score of the fitted dose curve at least 0.9, where 1 is the maximum; inactive = score below 0.9.
Parameter call: string, one of yes (1) = active, no (0) = inactive

Examples with answers:
> print(dat)
                                   compound  answer.label
1                               N#Cc1cccnc1        no (0)
2  CC(C)O.CC(C)O.OCCN(CCO)CCO.OCCN(CCO)CCO.[Ti]        no (0)
3  Cc1cc(Cl)ccc1OC(C)C(=O)O (stereo unspecified)        no (0)

What outcome does the record of this test show for "CCCCCCCCCCCCc1cccc(S(=O)(=O)O)c1" ?
no (0)

What outcome does the record of this test show for "Oc1cc(Cl)c(Cl)cc1Cl" ?
yes (1)

What outcome does the record of this test show for "Oc1ccc(Cc2ccc(O)cc2)cc1" ?
no (0)

What outcome does the record of this test show for "Oc1cccc(-c2ccccc2)c1" ?
yes (1)

What outcome does the record of this test show for C=CC(Cl)CCl (stereo unspecified) ?
no (0)

What outcome does the record of this test show for CC(C)=CC1C(C(=O)OCc2cccc(Oc3ccccc3)c2)C1(C)C (stereo unspecified) ?
yes (1)

What outcome does the record of this test show for "NC(=O)CCl" ?
no (0)

What outcome does the record of this test show for "Oc1c(Cl)cc(Cl)cc1Cl" ?
no (0)
